molecular target: purified human autoBACE-2 (Homo sapiens (Human)); assay: BACE-2 Assay (BACE-HTRF assay); type: biochemical; details: Ki calculated from IC50 using the Cheng-Prusoff equation; read-out: BACE2 Ki
Sequence (Q9Y5Z0 63-473): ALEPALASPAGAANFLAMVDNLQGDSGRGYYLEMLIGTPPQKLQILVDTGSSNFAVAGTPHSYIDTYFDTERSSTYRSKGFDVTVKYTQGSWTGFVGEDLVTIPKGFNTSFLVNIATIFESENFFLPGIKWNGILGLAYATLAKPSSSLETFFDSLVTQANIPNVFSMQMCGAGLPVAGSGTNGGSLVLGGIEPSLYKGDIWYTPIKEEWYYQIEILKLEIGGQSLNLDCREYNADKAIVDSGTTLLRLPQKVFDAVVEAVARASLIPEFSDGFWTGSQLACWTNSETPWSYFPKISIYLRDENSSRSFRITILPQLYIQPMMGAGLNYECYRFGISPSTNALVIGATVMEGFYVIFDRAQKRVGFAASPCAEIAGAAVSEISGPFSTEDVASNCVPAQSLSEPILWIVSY
readout-type: pKi
Convention used: pKi is expressed as -log10 of the molar concentration.

>>> recorded_result("CC1(C)C(=N)N[C@](C)(c2cc(NC(=O)c3ccc(C(F)(F)F)cn3)cc(Cl)c2F)CS1(=O)=O [Example 9v]")
7.89

Consider now this further compound.
Give reported pKi value for CC1(C)C(=N)N[C@](C)(c2c(F)c(F)cc(NC(=O)c3ccc(C(F)(F)F)cn3)c2F)CS1(=O)=O [Example 9ad] 7.39

From: patent US9499502B2
